The measurements presented in this section are drawn from PubChem BioAssay AID1918941.

Test system: SW 1271 complex spheroids, viability
Experiment notes: Anticancer human tumor SW 1271 cell line growth inhibition [LSD1];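 note: spheroids exposed to agents for 7 days before luminescence read; 100% = DMSO vehicle control viability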
Condition parameters: second compound 1 µM; first compound 0.0316 µM; active compounds read low
From the text: Multicellular complex tumor spheroid response to LSD1 Inhibitor Iadademstat in combination with a variety of drugs and investigational agents in selected tumor cell lines The current study was undertaken to assess response to LSD1 inhibitors in combination with standard-of-care drugs and investigational agents in solid tumor complex spheroid models as well as in the K-562 leukemia. […] Compounds. […] If the clinical Cmax for an agent had not been determined, the highest concentration tested was 10 microM. […]
Metric: viability, T/C (%)
Record the value in %, omitting the unit from your answer.

# compound CC1COCCN1c1cc(C2(S(C)(=N)=O)CC2)nc(-c2ccnc3[nH]ccc23)n1 (stereo unspecified) + NC1CC1c1ccc(-c2cccc(O)c2)cc1 ; its viability, T/C = 75
